Reference source for all entries: patent US20210024483A1

- EXPERIMENTAL_TARGET: GPR40 (UniProt O14842)
- EXPERIMENT: GPR40 Calcium Flux Assay
- REPORTED_CONDITIONS: transfected HEK293 cells stably expressing human or rat GPR40; species not given
ENDPOINT_LABEL: pEC50
# pEC50 = -log10(concentration in molar units)

**Q:** Request the reported pEC50 associated with CCC(C)C1=C(COc2ccc(CCC(=O)O)c(C(F)(F)F)c2)COCC1 (stereo not shown)
**A:** 6.13

**Q:** Field entry: C=C(C1=C(COc2ccc(CCC(=O)O)c(C(F)(F)F)c2)COCC1)c1ccccc1
**A:** 7.27

**Q:** Field entry: Cc1ccc(CC2=C(COc3ccc(CCC(=O)O)c(C(F)(F)F)c3)COCC2)cc1
**A:** 6.49

**Q:** Field entry: CC(C)CC1=C(COc2ccc(CCC(=O)O)c(Cl)c2)COCC1
**A:** 5.97

* * *

- EXPERIMENTAL_TARGET: GPR40 (UniProt O14842)
- EXPERIMENT: GPR40 Calcium Flux Assay
- REPORTED_CONDITIONS: transfected HEK293 cells stably expressing human or rat GPR40; species not given
ENDPOINT_LABEL: EC50 (nM)
The response must be a number in nM with no trailing unit.

**Q:** Provide the documented EC50 with GPR40 (UniProt O14842) as the system for CC(C)CCC1=C(COc2ccc(CCC(=O)O)c(C(F)(F)F)c2)COCC1 [compound 722]
**A:** 973

**Q:** Field entry: C=C(C1=C(COc2ccc(CCC(=O)O)c(Cl)c2)COCC1)c1ccccc1 [compound 720]
**A:** 339

**Q:** Field entry: O=C(O)CCc1ccc(OCC2=C(C3CCCC3)CCOC2)cc1C(F)(F)F [compound 731]
**A:** 93

**Q:** Field entry: O=C(O)CCc1ccc(OCC2=C(C3CCC3)CCOC2)cc1Cl [compound 725]
**A:** 588

**Q:** Field entry: Cc1ccc(C2=C(COc3ccc(CCC(=O)O)c(C(F)(F)F)c3)COCC2)cc1F [compound 685]
**A:** 829

**Q:** Field entry: O=C(O)CCc1ccc(OCC2=C(C3CCCC3)CCOC2)cc1Cl [compound 727]
**A:** 386

**Q:** Field entry: C=C(C1=C(COc2ccc(CCC(=O)O)c(C(F)(F)F)c2)COCC1)c1ccc(C(F)(F)F)cc1 [compound 705]
**A:** 73

**Q:** Field entry: O=C(O)CCc1ccc(OCC2=C(C3C=CCC3)CCOC2)cc1 (stereo not drawn) [compound 740]
**A:** 2080

**Q:** Field entry: O=C(O)CCc1ccc(OCC2=C(Cc3ccccc3)CCOC2)cc1 [compound 688]
**A:** 3250

* * *

- EXPERIMENTAL_TARGET: Human GPR120 short form (short splice variant, NM_001195755.1) (Homo sapiens, UniProt Q5NUL3)
- EXPERIMENT: Human GPR120 Calcium Flux Assay
- REPORTED_CONDITIONS: HEK-293 cells, 4200 cells/well, read-out: Human GPR120 Calcium Flux Assay Procedure B EC50
Response field class: enum, chosen by comparing EC50 against class 1 = under 0.2 µM, class 2 = from 0.2 µM up to 1 µM, class 3 = 1 µM and over

**Q:** Bin this entry: CC(C)Oc1ccccc1C1=C(COc2ccc(CCC(=O)O)c(C(F)(F)F)c2)COCC1
**A:** class 3

**Q:** Field entry: C=C(C1=C(COc2ccc(CCC(=O)O)cc2F)COCC1)c1ccccc1
**A:** class 3

**Q:** Field entry: C=C(C1=C(COc2ccc(CCC(=O)O)c(C(F)(F)F)c2)COCC1)c1ccccc1Cl
**A:** class 3

**Q:** Field entry: CC1(C)CCC=C1C1=C(COc2ccc(CCC(=O)O)c(C(F)(F)F)c2)COCC1
**A:** class 3

**Q:** Field entry: O=C(O)CCc1cc(F)c(OCC2=C(c3ccc(Cl)cc3)CCOC2)c(F)c1
**A:** class 1

**Q:** Field entry: Cc1ccc(C2=C(COc3cc(C(F)(F)F)c(CCC(=O)O)c(C(F)(F)F)c3)COCC2)cc1
**A:** class 3

**Q:** Field entry: Cc1cc(C2=C(COc3ccc(CCC(=O)O)c(C(F)(F)F)c3)COCC2)ccc1Cl
**A:** class 3

**Q:** Field entry: Cc1ccc(C2=C(COc3ccc(CCC(=O)O)c(C(F)(F)F)c3)COCC2)cc1F
**A:** class 2

**Q:** Field entry: Cc1ccc(C2=C(COc3ccc(CCC(=O)O)c(C)c3C)COCC2)cc1F
**A:** class 1

**Q:** Field entry: COc1ccccc1C1=C(COc2ccc(CCC(=O)O)c(C(F)(F)F)c2)COCC1
**A:** class 3

**Q:** Field entry: Cc1c(CCC(=O)O)ccc(OCC2=C(C3CCC3)CCOC2)c1C
**A:** class 2

**Q:** Field entry: Cc1ccc(C2=C(COc3ccc(CCC(=O)O)c(C(F)(F)F)c3)COCC2)cc1
**A:** class 2

**Q:** Field entry: Cc1cccc(C)c1C1=C(COc2ccc(CCC(=O)O)c(Cl)c2)COCC1
**A:** class 3

**Q:** Field entry: C=C(C1=C(COc2ccc(CCC(=O)O)cc2)COCC1)c1ccccc1
**A:** class 3

**Q:** Field entry: Cc1cc(CCC(=O)O)ccc1OCC1=C(c2ccc(F)cc2)CSC1
**A:** class 1

**Q:** Field entry: O=C(O)CCc1ccc(OCC2=C(C3CCCC3)CCOC2)cc1
**A:** class 2

* * *

- EXPERIMENTAL_TARGET: Human GPR120 short form (short splice variant, NM_001195755.1) (Homo sapiens, UniProt Q5NUL3)
- EXPERIMENT: Human GPR120 Calcium Flux Assay
- REPORTED_CONDITIONS: HEK-293 cells, 4200 cells/well, read-out: Human GPR120 Calcium Flux Assay Procedure B EC50
pEC50: −log10 of the molar value.
Record yes (1) whenever pEC50 is at 6 or higher; record no (0) when lower.

**Q:** Does the reported pEC50 for C=C(C1=C(COc2ccc(CCC(=O)O)c(C(F)(F)F)c2)COCC1)c1ccc(F)cc1 fall at or above the 6 mark?
**A:** no (0)

**Q:** Field entry: O=C(O)CCc1ccc(OCC2=C(c3ccccc3OC(F)(F)F)CCOC2)cc1C(F)(F)F
**A:** no (0)

**Q:** Field entry: Cc1c(CCC(=O)O)ccc(OCC2=C(c3ccc(F)cc3F)CCOC2)c1C
**A:** yes (1)

**Q:** Field entry: Cc1c(CCC(=O)O)ccc(OCC2=C(c3ccc(Cl)cc3)COCC2)c1C
**A:** yes (1)

**Q:** Field entry: O=C(O)CCc1ccc(OCC2=C(Cc3ccccc3)CCOC2)cc1
**A:** no (0)

**Q:** Field entry: O=C(O)CCc1ccc(OCC2=C(Cc3ccc(Cl)cc3)CCOC2)cc1
**A:** no (0)

**Q:** Field entry: CC(C)C1=C(COc2ccc(CCC(=O)O)c(C(F)(F)F)c2)COCC1
**A:** no (0)

**Q:** Field entry: CC(C1=C(COc2ccc(CCC(=O)O)c(C(F)(F)F)c2)COCC1)c1ccccc1 (stereo not drawn)
**A:** no (0)

**Q:** Field entry: O=C(O)CCc1ccc(OCC2=C(Cc3ccccc3)CCOC2)cc1C(F)(F)F
**A:** no (0)

**Q:** Field entry: O=C(O)CCc1ccc(OCC2=C(c3ccc(Cl)cc3)CCOC2)cc1C(F)(F)F
**A:** yes (1)

**Q:** Field entry: Cc1ccc(C2=C(COc3ccc(CCC(=O)O)c(C)c3C)COCC2)cc1
**A:** yes (1)

**Q:** Field entry: O=C(O)CCc1ccc(OCC2=C(C3CCCCC3)CCOC2)cc1C(F)(F)F
**A:** no (0)

**Q:** Field entry: Cc1cc(Cl)ccc1C1=C(COc2ccc(CCC(=O)O)c(C(F)(F)F)c2)COCC1
**A:** no (0)

**Q:** Field entry: O=C(O)CCc1ccc(OCC2=C(C3CCC3)CCOC2)cc1Cl
**A:** no (0)

**Q:** Field entry: Cc1c(CCC(=O)O)ccc(OCC2=C(c3ccc(F)c(F)c3)CCOC2)c1C
**A:** yes (1)

**Q:** Field entry: Cc1cc(CCC(=O)O)ccc1OCC1=C(c2ccc(Cl)cc2)CCOC1
**A:** yes (1)

* * *

- EXPERIMENTAL_TARGET: Human GPR120 short form (short splice variant, NM_001195755.1) (Homo sapiens, UniProt Q5NUL3)
- EXPERIMENT: Human GPR120 Calcium Flux Assay
- REPORTED_CONDITIONS: HEK-293 cells, 4200 cells/well, read-out: Human GPR120 Calcium Flux Assay Procedure B EC50
ENDPOINT_LABEL: EC50 (nM)
The response must be a number in nM with no trailing unit.

**Q:** Request the reported EC50 associated with O=C(O)CCc1ccc(OCC2=C(C3CCCC3)CCOC2)cc1Cl
**A:** 1600

**Q:** Field entry: O=C(O)CCc1ccc(OCC2=C(C3CCCC3)COCC2)cc1
**A:** 455

**Q:** Field entry: O=C(O)CCc1ccc(OCC2=C(c3ccc(Cl)c(Cl)c3)CCOC2)cc1C(F)(F)F
**A:** 2630

**Q:** Field entry: Cc1cc(C2=C(COc3ccc(CCC(=O)O)c(C)c3C)COCC2)ccc1F
**A:** 527

**Q:** Field entry: Cc1cc(CCC(=O)O)ccc1OCC1=C(c2ccc(Cl)cc2)COCC1
**A:** 178

**Q:** Field entry: O=C(O)CCc1ccc(OCC2=C(C3CCCC3)CCOC2)cc1C(F)(F)F
**A:** 818

**Q:** Field entry: O=C(O)CCc1cc(F)c(OCC2=C(C3CCCC3)CCOC2)c(F)c1
**A:** 615

**Q:** Field entry: CC(C)CCC1=C(COc2ccc(CCC(=O)O)c(C(F)(F)F)c2)COCC1
**A:** 1190

**Q:** Field entry: O=C(O)CCc1ccc(OCC2=C(C3CCCC3)CCOCC2)cc1
**A:** 1310

**Q:** Field entry: Cc1c(CCC(=O)O)ccc(OCC2=C(c3ccc(Cl)c(F)c3)CCOC2)c1C
**A:** 170

**Q:** Field entry: Cc1c(CCC(=O)O)ccc(OCC2=C(c3ccc(F)cc3)CCOC2)c1C
**A:** 316

**Q:** Field entry: CCC(C)C1=C(COc2ccc(CCC(=O)O)c(C(F)(F)F)c2)COCC1 (centres unmarked)
**A:** 10100

**Q:** Field entry: Cc1ccc(CC2=C(COc3ccc(CCC(=O)O)cc3)COCC2)cc1
**A:** 2400

**Q:** Field entry: CC(C)CC1=C(COc2ccc(CCC(=O)O)c(C(F)(F)F)c2)COCC1
**A:** 1300

**Q:** Field entry: O=C(O)CCc1cc(F)c(OCC2=C(Cc3ccccc3)CCOC2)c(F)c1
**A:** 1930

**Q:** Field entry: Cc1c(CCC(=O)O)ccc(OCC2=C(c3ccccc3F)CCOC2)c1C
**A:** 202

**Q:** Field entry: CCCCC1=C(COc2ccc(CCC(=O)O)c(C(F)(F)F)c2)COCC1
**A:** 829

**Q:** Field entry: Cc1c(CCC(=O)O)ccc(OCC2=C(c3ccc(Cl)cc3F)CCOC2)c1C
**A:** 115

**Q:** Field entry: Cc1c(CCC(=O)O)ccc(OCC2=C(c3ccc(Cl)cc3)CCOC2)c1C
**A:** 172

**Q:** Field entry: Cc1ccc(C2=C(COc3ccc(CCC(=O)O)c(C(F)F)c3)COCC2)cc1
**A:** 832

**Q:** Field entry: Cc1ccc(C2=C(COc3ccc(CCC(=O)O)cc3)CCOCC2)cc1F
**A:** 1360

**Q:** Field entry: CC(C)CC1=C(COc2c(F)cc(CCC(=O)O)cc2F)COCC1
**A:** 1810
